Values were extracted from patent US20210300924A1.

target_or_test_system: UniProtKB Q9NR96
Sequence (Q9NR96 26-1032): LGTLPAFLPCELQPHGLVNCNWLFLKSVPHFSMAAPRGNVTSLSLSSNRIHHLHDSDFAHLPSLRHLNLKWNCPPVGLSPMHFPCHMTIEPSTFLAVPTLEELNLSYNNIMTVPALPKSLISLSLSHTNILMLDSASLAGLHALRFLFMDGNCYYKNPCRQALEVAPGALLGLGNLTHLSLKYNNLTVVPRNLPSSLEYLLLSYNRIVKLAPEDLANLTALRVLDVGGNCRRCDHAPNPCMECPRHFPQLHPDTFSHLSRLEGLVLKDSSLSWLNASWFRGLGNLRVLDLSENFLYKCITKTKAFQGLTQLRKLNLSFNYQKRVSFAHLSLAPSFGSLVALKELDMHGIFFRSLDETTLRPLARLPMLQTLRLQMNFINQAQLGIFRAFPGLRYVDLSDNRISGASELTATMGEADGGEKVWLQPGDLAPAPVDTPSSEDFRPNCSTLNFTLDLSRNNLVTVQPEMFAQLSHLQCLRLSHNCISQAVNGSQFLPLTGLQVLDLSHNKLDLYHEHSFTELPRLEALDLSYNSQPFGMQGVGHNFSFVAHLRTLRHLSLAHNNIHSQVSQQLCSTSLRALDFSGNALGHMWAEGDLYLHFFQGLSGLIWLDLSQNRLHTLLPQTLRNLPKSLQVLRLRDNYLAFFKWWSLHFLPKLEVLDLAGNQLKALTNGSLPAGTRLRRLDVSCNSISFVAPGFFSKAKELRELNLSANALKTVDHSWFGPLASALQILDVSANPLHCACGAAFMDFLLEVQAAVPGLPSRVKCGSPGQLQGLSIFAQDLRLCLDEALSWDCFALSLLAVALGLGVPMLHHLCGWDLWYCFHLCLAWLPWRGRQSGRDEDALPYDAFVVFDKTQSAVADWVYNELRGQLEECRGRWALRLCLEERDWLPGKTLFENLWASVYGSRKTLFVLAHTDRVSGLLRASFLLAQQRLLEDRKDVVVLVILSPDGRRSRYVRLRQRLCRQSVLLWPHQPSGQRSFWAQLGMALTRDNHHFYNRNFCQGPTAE
assay_protocol: HEK293-Blue-hTLR-9 cells assay
Type: cell-based
Set-up: host or cells: HEK293 (HEK-Blue hTLR9)
condition_info: HEK293-Blue-hTLR9 cells, ODN2006 stimulation, 20 hrs, SEAP reporter; read-out: HEK/hTLR9 IC50
Method: HEK293-Blue-hTLR-9 Cells Assay: A stable HEK293-Blue-hTLR-9 cell line was purchased from InvivoGen (Cat. #: hkb-htlr9, San Diego, Calif., USA). […] The cell culture supernatant SEAP reporter activity was determined using QUANTI-Blue™ kit (Cat. #: rep-01, Invivogen, San Diego, Calif., USA) at a wavelength of 640 nm, a detection medium that turns purple or blue in the presence of alkaline phosphatase. […]
quantity_kind: IC50 (nM)

[a] C[C@@H]1CN(c2ccc(C#N)c3ncccc23)C[C@H](CN2CC(n3ncc4c3C[C@H](C)NC4)C2)O1
[b] C[C@@H]1CN(c2ccc(C#N)c3ncccc23)C[C@H](CN2CCC(n3cc4c(n3)CCNC4)CC2)O1
Decide: a or b , by lowest recorded IC50. // output: label of the selected item b
(b: 55 nM, a: 147 nM)

[I] C[C@@H]1CN(c2ccc(C#N)c3ncccc23)C[C@H](CN2CC(n3ncc4c3CNCC4)C2)O1
[II] C[C@@H]1CN(c2ccc(C#N)c3ncccc23)C[C@H](CN2CC(n3cc4c(n3)CCN[C@@H]4C)C2)O1
Input pair: I , II . Output: entry with lower IC50. Write down the label attached to your selection. I
(I: 51 nM, II: 80 nM)

[P] C[C@@H]1CN(c2ccc(C#N)c3ncccc23)C[C@H](CN2CC(n3ncc4c3CCN[C@H]4C)C2)O1
[Q] Cc1nn(C2CN(C[C@H]3CN(c4ccc(C#N)c5ncccc45)C[C@@H](C)O3)C2)c2c1CN(C)CC2
I'm curious whether P or Q has the smaller IC50 number. Which is it? // output: label of the selected item P
